# Test system: MDA-MB-231 breast
# assay: NCI tumour cell line growth inhibition, 48 h

>  <compound>
COc1cc2c(cc1OCCCN1CCN(CCCOc3cc4c(cc3OC)C(=O)N3CCC[C@H]3C=N4)CC1)C=CC(C)(C)O2

>  <units.of.measure>
µM

>  <lt.gt.eq>
=

>  <TGI>
2.58

$$$$
>  <compound>
CCOc1ccc2nc(NC(=O)C(=O)C(C(=O)c3ccccc3-c3ccccc3)C3OC(=O)c4ccccc43)sc2c1 (stereo not given)

>  <units.of.measure>
µM

>  <lt.gt.eq>
=

>  <TGI>
70.8

$$$$
>  <compound>
CCCCNC1CCC2(SCCS2)c2[nH]c3ccccc3c21 (stereo not given)

>  <units.of.measure>
µM

>  <lt.gt.eq>
>

>  <TGI>
62.6

$$$$
>  <compound>
Cc1nc2sccn2c1/C=C1/C(=O)Nc2ccccc21

>  <units.of.measure>
µM

>  <lt.gt.eq>
>

>  <TGI>
82.5

$$$$
>  <compound>
O=C1CSC2(CC(/C=C/c3ccccc3)=NN2c2cccc(S(=O)(=O)O)c2)N1c1nc2ccccc2s1 (stereo not given)

>  <units.of.measure>
µM

>  <lt.gt.eq>
=

>  <TGI>
47.8

$$$$
